Tested on: HDAC (Mouse Liver Extract)
Assay: Histone Deacetylase (HDAC) Inhibition Assay using Boc-Lys (Ac)-AMC Substrate
Assay type: biochemical
Details: 10 μM; mouse liver enzyme; NA = No Activity; in % (unit assumed)
Parameter: HDAC Inhibition 10 μM. Scope: all listed entries.
endpointLabel: HDAC Inhibition 10 μM

* CC(=O)NCCCCCC(=O)N1CCN(CC(=O)Nc2nc3ccccc3s2)CC1 [Example 43] | 5.24
* CC(=O)SCCCCC(=O)N1CCN(CC(=O)Nc2nc(C(C)(C)C)cs2)CC1 [Example 14] | 57.33
* COC(=O)[C@H](CO)NC(=O)CCCCCCC(=O)N1CCN(CC(=O)Nc2nc3ccc(C)cc3s2)CC1 [Example 30] | 4.65
* CC(=O)SCCCCCC(=O)N1CCN(CC(=O)N2CCOCC2)CC1 [Example 19] | 51.25

* * *

Test system: MDAMB231/U251
Test: Anti-cancer screen (MTT), MDAMB231/U251
Type: cell-based
Settings: MDAMB231/U251 cells, 48 hours, concentration to decrease % growth by 150%
endpointLabel: LC50

• CC(=O)SCCCCCC(=O)N1CCN(CC(=O)Nc2nc(C)cs2)CC1 [Example 17] = > 100 µM
• CC(=O)SCCCCCC(=O)N1CCN(C(=O)CN2CCOCC2)CC1 [Example 2] = > 100 µM
• CC(=O)N(O)C(=O)CCCCCCC(=O)N1CCN(CC(=O)Nc2nc3ccccc3s2)CC1 [Example 39] = 78 µM
• CCOc1ccc2nc(NC(=O)CN3CCN(C(=O)CCCCCCC(=O)NO)CC3)sc2c1 [Example 32] = 98 µM
• Cc1ccc2nc(NC(=O)CN3CCN(C(=O)CCCCCS)CC3)sc2c1 [Example 25] = > 100 µM
• COc1cc(CNC(=O)CN2CCN(C(=O)CCCCSC(C)=O)CC2)cc(OC)c1 [Example 20] = > 100 µM
• COc1cccc2sc(NC(=O)CN3CCN(C(=O)CCCCCN(OCc4ccccc4)C(C)=O)CC3)nc12 [Example 28] = > 100 µM
• O=C(CCCCCCC(=O)N1CCN(CC(=O)Nc2cccc(F)c2)CC1)NO [Example 36] = > 100 µM

* * *

Test system: HDAC (Mouse Liver Extract)
Assay: Histone Deacetylase (HDAC) Inhibition Assay using Boc-Lys (Ac)-AMC Substrate
Type: biochemical
Details: 1 μM; mouse liver enzyme; NA = No Activity; in % (unit assumed)
Description: HDAC Activitv Screening: Histone Deacetylase (HDAC) Inhibition Assay using Boc-Lys (Ac)-AMC Substrate: Inhibition of HDAC has been implicated to modulate transcription and to induce apoptosis or differentiation in cancer cells. The fluorometric assay provides a fast and fluorescence based method that eliminates radioactivity, extractions or chromatography, as used in traditional assays. The assay based on two steps. […]
The compounds listed here are annotated with their HDAC Inhibition 1 μM.
endpointLabel: HDAC Inhibition 1 μM

• CCOc1ccc2nc(NC(=O)CN3CCN(C(=O)CCCCCCC(=O)N(O)C(C)=O)CC3)sc2c1 = 55.57
• CC(=O)N(OCc1ccccc1)C(=O)CCCCCCC(=O)N1CCN(CC(=O)Nc2nc3c(C)cccc3s2)CC1 = 0.6
• Cc1ccc2nc(NC(=O)CN3CCN(C(=O)CCCCCCC(=O)NO)CC3)sc2c1 = 68.3
• CC(=O)SCCCCC(=O)N1CCN(CC(=O)Nc2nc3ccccc3s2)CC1 = 31.41
• O=C(CCCCCCC(=O)N1CCN(CC(=O)Nc2nccs2)CC1)NO = 45.65
• CC(=O)SCCCCC(=O)N1CCN(CC(=O)Nc2nc(C)cs2)CC1 = 15.82
• CC(=O)N(O)C(=O)CCCCCCC(=O)N1CCN(CC(=O)Nc2nc3ccccc3s2)CC1 = 81.4
• CC(=O)NCCCCCC(=O)N1CCN(CC(=O)Nc2nc3ccccc3s2)CC1 = 2.61
• O=C(CCCCCCC(=O)N1CCN(CC(=O)Nc2ccccc2)CC1)NO = 45.20
• O=C(CCCCCCC(=O)N1CCN(CC(=O)Nc2cccc(F)c2)CC1)NO = 98.2
• CC(=O)SCCCCCC(=O)N1CCN(C(=O)CNc2nc3ccc(C)cc3s2)CC1 = 42.40
• CC(=O)SCCCCC(=O)N1CCN(CC(=O)Nc2ccccc2)CC1 = 29.26
• CC(=O)SCCCCC(=O)N1CCN(CC(=O)Nc2nc3c(C)cccc3s2)CC1 = 26.73
• CC(=O)SCCCCCC(=O)N1CCN(C(=O)CN2CCOCC2)CC1 = 8.31
• CC(=O)ON(C(C)=O)C(=O)CCCCCCC(=O)N1CCN(CC(=O)Nc2nc3ccc(C)cc3s2)CC1 = 37.83
• CC(=O)SCCCCC(=O)N1CCN(CC(=O)Nc2nc3ccc(C)cc3s2)CC1 = 31.75
• O=C(CCCCCCC(=O)N1CCN(CC(=O)Nc2nc3ccccc3s2)CC1)NO = 61.41
• CC(=O)SCCCCCC(=O)N1CCN(CC(=O)N2CCOCC2)CC1 = 18.82
